assay-metric: melting point

Some compounds with recorded melting point:
Incoming: I would be grateful if you could share the reported melting point for CSc1nc2ccc(NC(=O)Nc3ccc(Cl)c(C(F)(F)F)c3)cc2s1 .
Outgoing: 236 to 238 °C

Incoming: Lookup COc1cccc(NC(=O)Nc2ccc3c(c2)S(=O)(=O)C=C3)c1
Outgoing: 206 to 208 °C

---
Incoming: I would be grateful if you could share the reported melting point for O=C(Nc1ccccc1F)Nc1cccc2[nH]ccc12 .
Outgoing: 244 to 246 °C

Incoming: Lookup Cc1nc2cc(NC(=O)Nc3ccc(F)cc3)ccc2s1
Outgoing: 241 to 242 °C

Incoming: Lookup O=C(Nc1ccc(Cl)c(C(F)(F)F)c1)Nc1ccc2[nH]ncc2c1
Outgoing: > 250 °C

---

assay-metric: melting point

Some compounds with recorded melting point:
Incoming: I would be grateful if you could share the reported melting point for O=C(Nc1ccc(Cl)c(C(F)(F)F)c1)Nc1ccc2[nH]nnc2c1 .
Outgoing: > 250 °C

Incoming: Lookup Cc1nc2cc(NC(=O)Nc3cccc(C(F)(F)F)c3)ccc2s1
Outgoing: 229 to 231 °C

Incoming: Lookup Cc1nc2cc(NC(=O)Nc3cccc4ccccc34)ccc2s1
Outgoing: > 250 °C

Incoming: Lookup Cc1nc2cc(NC(=O)Nc3ccc4ccccc4c3)ccc2s1
Outgoing: > 250 °C

---
Incoming: I would be grateful if you could share the reported melting point for O=C(Nc1ccc(Cl)c(C(F)(F)F)c1)Nc1ccc2cc[nH]c2c1 .
Outgoing: 245 to 248 °C

---

# assayed-system: human VR1 (Homo sapiens)
# Construct: The cloned hVR1 cDNA was constructed with pcDNA3 vector and transfected into a CHOluc9aeq cell line; expressed in transfected cells
# Sequence (Q8NER1 whole entry): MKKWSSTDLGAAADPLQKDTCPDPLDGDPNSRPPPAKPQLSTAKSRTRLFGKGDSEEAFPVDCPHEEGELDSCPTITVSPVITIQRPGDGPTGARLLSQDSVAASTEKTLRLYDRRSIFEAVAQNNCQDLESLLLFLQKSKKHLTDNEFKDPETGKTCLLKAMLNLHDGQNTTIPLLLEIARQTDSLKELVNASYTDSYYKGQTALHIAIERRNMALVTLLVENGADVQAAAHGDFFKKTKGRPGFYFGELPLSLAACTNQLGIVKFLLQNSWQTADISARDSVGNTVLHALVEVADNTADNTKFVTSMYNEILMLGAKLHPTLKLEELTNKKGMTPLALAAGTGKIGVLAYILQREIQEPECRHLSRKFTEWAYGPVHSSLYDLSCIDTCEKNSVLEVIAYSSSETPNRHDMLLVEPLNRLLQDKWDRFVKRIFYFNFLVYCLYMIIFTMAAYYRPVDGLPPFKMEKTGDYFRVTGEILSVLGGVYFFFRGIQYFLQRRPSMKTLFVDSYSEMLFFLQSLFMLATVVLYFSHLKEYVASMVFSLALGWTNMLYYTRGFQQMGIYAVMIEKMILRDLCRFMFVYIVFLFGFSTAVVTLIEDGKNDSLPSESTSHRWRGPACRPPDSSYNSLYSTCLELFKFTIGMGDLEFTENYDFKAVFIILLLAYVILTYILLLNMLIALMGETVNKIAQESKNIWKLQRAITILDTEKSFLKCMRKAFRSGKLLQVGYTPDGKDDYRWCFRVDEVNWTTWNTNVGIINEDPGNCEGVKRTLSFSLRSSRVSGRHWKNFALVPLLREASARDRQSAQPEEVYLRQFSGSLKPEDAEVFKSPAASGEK
# experiment-description: Capsaicin-induced Ca2+ influx in the human VR1-transfected CHO cell line (Assay 1)
# Type: cell-based
# measurement-context: read-out: Activity grade
Below: a set of entries, each annotated with reported IC50.

Incoming: I would be grateful if you could share the reported IC50 for O=C(Nc1ccc(Cl)c(C(F)(F)F)c1)Nc1ccc2ncsc2c1 .
Outgoing: < 100 nM

---
Incoming: I would be grateful if you could share the reported IC50 for O=C(Nc1cccc(-c2ccccc2)c1)Nc1cccc2[nH]ccc12 .
Outgoing: < 100 nM

---

assay-metric: melting point

Incoming: I would be grateful if you could share the reported melting point for COc1ccccc1NC(=O)Nc1cccc2[nH]ccc12 .
Outgoing: 208 to 209 °C

Incoming: Lookup O=C(Nc1ccc(Oc2ccccc2)cc1)Nc1ccc2[nH]c(C(F)(F)F)nc2c1
Outgoing: 239 to 241 °C

Incoming: Lookup O=C(Nc1ccc(Cl)c(Cl)c1)Nc1cccc2[nH]ccc12
Outgoing: 244 to 245 °C

---

assay-metric: melting point

Incoming: I would be grateful if you could share the reported melting point for O=C(Nc1cccc(Cl)c1)Nc1cccc2[nH]ccc12 .
Outgoing: 238 to 239 °C

Incoming: Lookup O=C(Nc1ccc(Cl)cc1)Nc1cccc2[nH]ccc12
Outgoing: 247 to 248 °C

Incoming: Lookup Cc1nc2ccc(NC(=O)Nc3ccc(Cl)c(C(F)(F)F)c3)cc2s1
Outgoing: 234 to 235 °C

Incoming: Lookup Cc1nc2cc(NC(=O)Nc3ccc(Br)cc3)ccc2[nH]1
Outgoing: > 250 °C

Incoming: Lookup O=C(Nc1ccccc1Cl)Nc1cccc2[nH]ccc12
Outgoing: 244 to 246 °C

// moving on: another record for melting point
Incoming: I would be grateful if you could share the reported melting point for O=C(Nc1cc(Cl)cc(Cl)c1)Nc1cccc2[nH]ccc12 .
Outgoing: 262 to 263 °C
